Data origin: PubChem BioAssay AID1963981

- Test system: 354836-022-R-J1-PDC multicell spheroid viability;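 also: spheroids exposed to agents for seven days before the viability read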
- PROTOCOL SUMMARY: Anticancer human tumor 354836-022-R-J1-PDC patient-derived head and neck squamous cell carcinoma cell line growth inhibition [PI3K]
- CONDITION CONTEXT: second compound 10 µM; first compound 0.00316 µM; hits give low values
Recorded viability, T/C, one value per entry.

- COMPOUND: "CC(=O)c1c(C)c2cnc(Nc3ccc(N4CCNCC4)cn3)nc2n(C2CCCC2)c1=O + CC(Nc1ncnc2nc[nH]c12)c1cc2cccc(Cl)c2c(=O)n1-c1ccccc1"
  TARGET ENTITY: "354836-022-R-J1-PDC multicell spheroid viability"
  UNITS OF MEASURE: "%"
  viability, T/C: 91.1
- COMPOUND: "CCN1CCN(Cc2ccc(Nc3ncc(F)c(-c4cc(F)c5nc(C)n(C(C)C)c5c4)n3)nc2)CC1 + CC(Nc1ncnc2nc[nH]c12)c1cc2cccc(Cl)c2c(=O)n1-c1ccccc1"
  TARGET ENTITY: "354836-022-R-J1-PDC multicell spheroid viability"
  UNITS OF MEASURE: "%"
  viability, T/C: 92.5
- COMPOUND: "CCN1CCN(Cc2ccc(Nc3ncc(F)c(-c4cc(F)c5nc(C)n(C(C)C)c5c4)n3)nc2)CC1 + Cc1nc(NC(=O)N2CCCC2C(N)=O)sc1-c1ccnc(C(C)(C)C(F)(F)F)c1"
  TARGET ENTITY: "354836-022-R-J1-PDC multicell spheroid viability"
  UNITS OF MEASURE: "%"
  viability, T/C: 31.8
- COMPOUND: "CC(C)n1nc(-c2ccc3oc(N)nc3c2)c2c(N)ncnc21 + CC(Nc1ncnc2nc[nH]c12)c1cc2cccc(Cl)c2c(=O)n1-c1ccccc1"
  TARGET ENTITY: "354836-022-R-J1-PDC multicell spheroid viability"
  UNITS OF MEASURE: "%"
  viability, T/C: 89.2
- COMPOUND: "Cn1ncnc1[C@H]1c2n[nH]c(=O)c3cc(F)cc(c23)N[C@@H]1c1ccc(F)cc1 + CC(Nc1ncnc2nc[nH]c12)c1cc2cccc(Cl)c2c(=O)n1-c1ccccc1"
  TARGET ENTITY: "354836-022-R-J1-PDC multicell spheroid viability"
  UNITS OF MEASURE: "%"
  viability, T/C: 85.8
- COMPOUND: "CC(=O)c1c(C)c2cnc(Nc3ccc(N4CCNCC4)cn3)nc2n(C2CCCC2)c1=O + Cc1nc(NC(=O)N2CCCC2C(N)=O)sc1-c1ccnc(C(C)(C)C(F)(F)F)c1"
  TARGET ENTITY: "354836-022-R-J1-PDC multicell spheroid viability"
  UNITS OF MEASURE: "%"
  viability, T/C: 35.7
- COMPOUND: "CC(C)n1nc(-c2ccc3oc(N)nc3c2)c2c(N)ncnc21 + Cc1nc(NC(=O)N2CCCC2C(N)=O)sc1-c1ccnc(C(C)(C)C(F)(F)F)c1"
  TARGET ENTITY: "354836-022-R-J1-PDC multicell spheroid viability"
  UNITS OF MEASURE: "%"
  viability, T/C: 40.1
- COMPOUND: "Cn1ncnc1[C@H]1c2n[nH]c(=O)c3cc(F)cc(c23)N[C@@H]1c1ccc(F)cc1 + Cc1nc(NC(=O)N2CCCC2C(N)=O)sc1-c1ccnc(C(C)(C)C(F)(F)F)c1"
  TARGET ENTITY: "354836-022-R-J1-PDC multicell spheroid viability"
  UNITS OF MEASURE: "%"
  viability, T/C: 43.4
